Experiment: AUC (0 to t) in Sprague-Dawley rat at 10 mg/kg, po measured for 24 hrs by LC-MS/MS analysis
Type: ADME, organism-based
Conditions: in vivo
quantity: AUC(0-t) at 24 h (ng·h/mL)
Numbers only here, please. The scale is ng·h/mL.

Query string: Data request, read-out AUC(0-t) at 24 h, for Cc1c(NC(=O)CN2CCN(CC3CCN(c4ccc5c(c4)C(=O)N(C4CCC(=O)NC4=O)C5=O)CC3)CC2)c[nH]c1/C=C1\C(=O)Nc2ccc(F)cc21 (stereo unspecified)
Result string: 14700

---

Test: Antiproliferative activity against human HL-60 cells expressing wild-type FLT3 incubated for 48 hrs by CCK8 assay
Assay type: toxicity, cell-based
quantity: IC50 at 48 h (µM)
Numbers only here, please. The scale is µM.

Query string: Data request, read-out IC50 at 48 h, for `Cc1c(NC(=O)CCN2CCCC2)c[nH]c1/C=C1\C(=O)Nc2ccc(F)cc21`
Result string: 6.45

Cited source for all entries: ChEMBL document CHEMBL5543162
